# Test system: BT-549 breast
# method: NCI-60 one-dose screen, 48 h (100 = growth as untreated, 0 = no growth, -100 = all killed)
# test-context: 10 µM
The panel holds about 83,000 compounds, 20% with a hit somewhere; the sample as a whole holds those more often.
Entries annotated with measured growth
measured-quantity: growth (%)

INSERT INTO assay_data (compound, quantity_unit, experimental_value) VALUES
  ('COc1ccc2oc(=O)cc(C3c4ccc([nH]4)C(c4cc(=O)oc5ccc(OC)cc45)c4ccc([nH]4)C(c4cc(=O)oc5ccc(OC)cc45)c4ccc([nH]4)C(c4cc(=O)oc5ccc(OC)cc45)c4ccc3[nH]4)c2c1 (stereo not drawn)', '%', -73.8),
  ('CCc1ccc(-c2nnc(COc3ccc(-c4nc5ccc(C)cc5[nH]4)cc3OC)o2)cc1', '%', 38.8),
  ('CCOC(=O)c1sc(Nc2ncccn2)nc1-c1ccccn1', '%', 89.2),
  ('COc1cc(-c2nc3ccc(C)cc3[nH]2)ccc1OCC(=O)N=Nc1c(O)[nH]c2ccccc12', '%', 18.9),
  ('Cc1ccc(S(=O)(=O)Nc2cccc3[nH]c(C(F)(F)F)nc23)cc1', '%', 52),
  ('Cc1ccc(C)c(S(=O)(=O)NC2c3ccccc3Oc3ccccc32)c1', '%', 102),
  ('CCCCCc1cc[n+](CC(=O)c2ccc(Cl)cc2)cc1', '%', 86.6),
  ('CCCCCN(CCCCC)C(C)C(O)c1ccc2cc(Cl)c3ccccc3c2c1 (stereo not drawn)', '%', 110),
  ('COC(=O)c1cnc2c(c1)Oc1ccc(Cl)cc1-c1cc(C)nn1-2', '%', 83.4),
  ('CC1(CO)CCCC12OCCO2 (stereo not drawn)', '%', 99.9),
  ('COc1cc(-c2nc3ccc(C)cc3[nH]2)ccc1OCc1nnc(-c2ccc(CC(C)C)cc2)o1', '%', 101),
  ('O=c1[nH]c(=O)n(C2C[C@@H](O)[C@@H](CO)O2)cc1F (stereo partly drawn)', '%', 1.4),
  ('C=CCc1cc(Nc2c3ccc(Cl)cc3nc3ccc(OC)cc23)cc(CN(CC)CC)c1O', '%', 10.9),
  ('Cc1cc(/C=C2\SC(=Nc3ccccc3)N(C3CCCC3)C2=O)c(C)n1-c1ccc(Cl)cc1', '%', -57.6),
  ('CNC(=O)c1cc(Oc2ccc(NC(=O)Nc3ccc(Cl)c(OC(C)C)c3)c(F)c2)ccn1', '%', 75.1),
  ('C/C=C\COc1cc(C)c(Cl)cc1Cl', '%', 126),
  ('CC1(C)CNC(=O)N1', '%', 103),
  ('N=C(N)c1ccc(-c2ccc(-c3ccccc3)s2)s1', '%', 88.9),
  ('C/C(=N/NC(=O)c1sc(=S)n(C)c1N)c1cc2cc(Cl)ccc2o1', '%', 113),
  ('CCCCCCCCCCCCCC[n+]1ccc(C)cc1', '%', -45),
  ('CCCCC(CC#N)(CCC)CCC', '%', 98.5),
  ('CCCc1c(CC)c(=N)c2ccccc2n1C', '%', 81.8),
  ('COc1ccc(-c2nsc3c2NC(=O)CC3c2ccc(Cl)cc2)cc1 (stereo not drawn)', '%', 73.5);

---

# Tested on: TK-10 renal
# method: NCI-60 one-dose screen, 48 h (100 = growth as untreated, 0 = no growth, -100 = all killed)
# test-context: 10 µM
This is part of a sample that, as a whole, favours compounds with a hit. Of some 83,000 tested, about 20% had one in any assay.
measured-quantity: growth (%)

INSERT INTO results (molecule, test_target, quantity_unit, experimental_value) VALUES
  ('O/N=C1\CCC2CCCCC2C1 (stereo not given)', 'TK-10 renal', '%', 101),
  ('O=C(Nc1ccc(OCc2nnc(-c3ccccc3)o2)c(F)c1)Nc1ccc(Cl)c(Cl)c1', 'TK-10 renal', '%', 66.2),
  ('O=S(=O)(NCl)c1ccccc1', 'TK-10 renal', '%', 96.2),
  ('FC(F)(F)c1ccc(-c2cnc(Cl)nc2NC2CCCCCC2)cc1', 'TK-10 renal', '%', 32.1),
  ('COC(=O)C1(C(=O)OC)C2C(=O)C3C(C21)C3(C(=O)OC(C)(C)C)C(=O)OC(C)(C)C (stereo not given)', 'TK-10 renal', '%', 128),
  ('COc1cc(C2=Nc3c/c(=C\c4c(O)[nH]c5ccc(Cl)cc45)ccc3=N2)cc(OC)c1OC', 'TK-10 renal', '%', 35),
  ('CCN1CCN(c2nc(NNC(=O)c3cccc(OC)c3)nc(N3CCN(C(c4ccccc4)c4ccccc4)CC3)n2)CC1', 'TK-10 renal', '%', 79.7),
  ('O=NN(CCCl)C(=O)NCc1ccc(-c2ccc(CNC(=O)N(CCCl)N=O)cc2)cc1', 'TK-10 renal', '%', 105),
  ('COc1c(-c2c3sc(=O)[nH]c3nc3c2c(=O)[nH]n3C(C)C)cc2c(c1OC)OCO2', 'TK-10 renal', '%', 98.7),
  ('COc1cc(OC)cc(-c2n/c(=C\c3c(O)[nH]c4ccc(OC)cc34)cc3c2=Nc2ccccc2-3)c1', 'TK-10 renal', '%', 125);
